System: BT-549 breast
procedureText: NCI-60 one-dose screen, 48 h
testSettings: 10 µM unless noted
The panel holds about 83,000 compounds, 20% with a hit somewhere; the sample as a whole holds those more often. The source made the active and inactive calls. The calls were made as follows: active = growth percent below 10; inactive = the rest.
Possible outcomes: Yes for active, No for inactive

compound=Nc1nc(N)c2nc(-c3cccc(O)c3)c(-c3cccc(O)c3)nc2n1 cat=No
compound=CC[C@@H]1C(=O)N(C)c2cnc(Nc3ccc(C(=O)NC4CCN(C)CC4)cc3OC)nc2N1C1CCCC1 cat=No
compound=CO[C@H]1C[C@@H]2CC[C@@H](C)[C@@](O)(O2)C(=O)C(=O)N2CCCC[C@H]2C(=O)O[C@H]([C@H](C)C[C@@H]2CC[C@@H](OP(C)(C)=O)[C@H](OC)C2)CC(=O)[C@H](C)/C=C(\C)[C@@H](O)[C@@H](OC)C(=O)[C@H](C)C[C@H](C)\C=C/C=C/C=C/1C cat=No
compound=Cc1cccc(Cl)c1NC(=O)c1cnc(Nc2cc(N3CCOCC3)cc(S(C)(=O)=O)c2)s1 cat=No
compound=C=CC(=O)Nc1cc2c(Nc3ccc(F)c(Cl)c3)ncnc2cc1C#CC(C)(C)N1CCN(C)CC1 cat=Yes
compound=C/C(=C(/c1ccc(Cl)cc1)c1ccc(OCCN2CCCCC2)cc1)c1ccccc1 cat=No
compound=COc1cc(N2CCC(N(C)C)CC2)ccc1Nc1ncc(Cl)c(Nc2ccccc2P(C)(C)=O)n1 cat=Yes
compound="CCCCCCCC12Cc3ccccc3C1=Nc1c(c3ccccc3n1C)C2=O (stereo not drawn)" cat=No
compound=CNC(=O)c1cc(Oc2cccc3nc(Nc4ccc(Cl)c(F)c4)ccc23)ccn1 cat=No
compound="O=C1CC(c2ccc3c(c2)OCO3)c2ncn(-c3ccc(Cl)cc3)c2N1 (stereo not drawn)" cat=No
compound=CS(=O)(=O)N1CCc2c(-c3cnc(N)nc3)nc(N3CCOCC3)nc21 cat=Yes
compound="CC1(O)CC(c2nc(-c3ccc4ccc(-c5ccccc5)nc4c3)c3c(N)nccn23)C1 (stereo not drawn)" cat=No
compound=COc1cc(OC)c(/C=C/S(=O)(=O)Cc2ccc(OC)c(NCC(=O)O)c2)c(OC)c1 cat=Yes

---

growth listing for selected compounds.
System: KM12 colon
procedureText: NCI-60 one-dose screen, 48 h (100 = growth as untreated, 0 = no growth, -100 = all killed)
testSettings: 10 µM unless noted
Compounds without any hit were thinned out: in the full panel of roughly 83,000, 20% have a hit.
measuredProperty: growth (%)

compound=C[C@@H]1COC(Nc2ccc3ncnc(Nc4ccc(OCc5nccs5)c(Cl)c4)c3c2)=N1 measuredproperty=growth testresult=18.5
compound=C[C@@H](N)c1ccc(C(=O)Nc2ccnc3[nH]ccc23)cc1 measuredproperty=growth testresult=30.3
compound=COc1cc(Nc2ncc3c(n2)-c2ccc(Cl)cc2C(c2c(F)cccc2OC)=NC3)ccc1C(=O)O measuredproperty=growth testresult=28.3
compound="COC(=O)[C@H](Cc1ccccc1)NC(=O)[C@@H](OC)[C@@H]1Cc2cc3cc(OC4CC(OC5CC(O)C(O)C(C)O5)C(O)C(C)O4)c(C)c(O)c3c(O)c2C(=O)[C@H]1OC1CC(OC2CC(OC3CC(C)(O)C(O)C(C)O3)C(O)C(C)O2)C(O)C(C)O1 (stereo partly drawn)" measuredproperty=growth testresult=-5.45
compound="CC(C)(C)C(=O)OCOP(=O)(OCOC(=O)C(C)(C)C)C1CCCN(OC(=O)c2ccccc2)C1=O (stereo not drawn)" measuredproperty=growth testresult=5.57
compound="Nc1nc(=S)c2ncn(C3OC(COC(=O)c4ccc(Cl)cc4)C(OC(=O)c4ccc(Cl)cc4)C3OC(=O)c3ccc(Cl)cc3)c2[nH]1 (stereo not drawn)" measuredproperty=growth testresult=83.9
compound="O=C1C=CC2(NN=C(c3ccccc3)N2c2ccc(Cl)cc2)c2cccc(O)c21 (stereo not drawn)" measuredproperty=growth testresult=58.6
compound=CN[C@@H]1C[C@H]2O[C@@](C)([C@@H]1OC)n1c3ccccc3c3c4c(c5c6ccccc6n2c5c31)C(=O)N[C@H]4O measuredproperty=growth testresult=-59.8
